Test system: Streptococcus pyogenes
method: Antimicrobial activity against Streptococcus pyogenes MTCC 443 by broth microdilution method
Type: functional
experimental_readout: MIC

Use these answered entries as a reference point.
COc1ccc(-c2cc(N3CCCC3)n(-c3cccc(Cl)c3)c(=O)c2/N=N/c2ccc(Cl)cc2[N+](=O)[O-])cc1 ... 250 µg/mL
COc1ccc(-c2cc(=O)n(-c3cccc(Cl)c3)c(N3CCCC3)c2/N=N/c2cc(Cl)ccc2Cl)cc1 ... 500 µg/mL
COc1ccc(-c2cc(N3CCCC3)n(-c3cccc(Cl)c3)c(=O)c2Cn2cncn2)cc1 ... 200 µg/mL

Read the next record carefully.
What value of MIC on Streptococcus pyogenes does `COc1ccc(-c2cc(N3CCCC3)n(-c3cccc(Cl)c3)c(=O)c2/N=N/c2cccc([N+](=O)[O-])c2)cc1` have? 250 µg/mL

----------
Test system: Escherichia coli
method: Antimicrobial activity against Escherichia coli MTCC 442 by broth microdilution method
Assay type: functional
experimental_readout: MIC (mg/L)
Report as a plain number; the unit mg/L is understood.

Below, 5 compounds whose answers are already recorded.
COc1ccc(-c2cc(N3CCCC3)n(-c3cccc(Cl)c3)c(=O)c2/N=N/c2ccc(Cl)c(Cl)c2)cc1 ... 62.5
COc1ccc(-c2cc(=O)n(-c3cccc(Cl)c3)c(N3CCCC3)c2/N=N/c2cccc([N+](=O)[O-])c2)cc1 ... 250
COc1ccc(-c2cc(=O)n(-c3cccc(Cl)c3)c(N3CCCC3)c2/N=N/c2ccc([N+](=O)[O-])cc2)cc1 ... 250
COc1ccc(-c2cc(=O)n(-c3cccc(Cl)c3)c(N3CCCC3)c2/N=N/c2cccc(C)c2)cc1 ... 250
COc1ccc(-c2cc(=O)n(-c3cccc(Cl)c3)c(N3CCCC3)c2/N=N/c2cc(Cl)ccc2Cl)cc1 ... 100

For the compound shown here, `COc1ccc(-c2cc(N3CCCC3)n(-c3cccc(Cl)c3)c(=O)c2/N=N/c2ccccc2[N+](=O)[O-])cc1` , give the reported MIC. 100

Entry `COc1ccc(-c2cc(N3CCCC3)n(-c3cccc(Cl)c3)c(=O)c2/N=N/c2ccc(C)cc2)cc1` please 200

----------
Test system: Escherichia coli
method: Antimicrobial activity against Escherichia coli MTCC 442 by broth microdilution method
Type: functional
The following compounds are shown together with reported MIC values.
Return type: number; implicit unit µg/mL.

// known answers, use as guide
COc1ccc(-c2cc(=O)n(-c3cccc(Cl)c3)c(N3CCCC3)c2/N=N/c2c(Cl)cc([N+](=O)[O-])c(Cl)c2Cl)cc1 ... 250
COc1ccc(-c2cc(=O)n(-c3cccc(Cl)c3)c(N3CCCC3)c2/N=N/c2ccccc2[N+](=O)[O-])cc1 ... 200
COc1ccc(-c2cc(N3CCCC3)n(-c3cccc(Cl)c3)c(=O)c2/N=N/c2ccc(Cl)cc2)cc1 ... 500

API: the following record is the query input.
Form field: reported MIC of `COc1ccc(-c2cc(N3CCCC3)n(-c3cccc(Cl)c3)c(=O)c2/N=N/c2ccccc2Cl)cc1` 100

----------
# key: entry, value: MIC
Tested on: Escherichia coli
method: Antimicrobial activity against Escherichia coli MTCC 442 by broth microdilution method
Assay type: functional
Expressed in µg/mL, but write only the number.

COc1ccc(-c2cc(Cl)n(-c3cccc(Cl)c3)c(=O)c2)cc1 ... 100

Reported MIC for `COc1ccc(-c2cc(=O)n(-c3cccc(Cl)c3)c(N3CCCC3)c2/N=N/c2ccccc2C)cc1` : what is it? 200

Now consider `COc1ccc(-c2cc(N3CCCC3)n(-c3cccc(Cl)c3)c(=O)c2CN2CCCC2)cc1` and answer again. 250

Cool, now `COc1ccc(-c2cc(=O)n(-c3cccc(Cl)c3)c(N3CCCC3)c2/N=N/c2ccc(Cl)c(Cl)c2)cc1` 62.5
